Molecular target: δ-opioid receptor (Rattus norvegicus)
Sequence (P33533 whole entry): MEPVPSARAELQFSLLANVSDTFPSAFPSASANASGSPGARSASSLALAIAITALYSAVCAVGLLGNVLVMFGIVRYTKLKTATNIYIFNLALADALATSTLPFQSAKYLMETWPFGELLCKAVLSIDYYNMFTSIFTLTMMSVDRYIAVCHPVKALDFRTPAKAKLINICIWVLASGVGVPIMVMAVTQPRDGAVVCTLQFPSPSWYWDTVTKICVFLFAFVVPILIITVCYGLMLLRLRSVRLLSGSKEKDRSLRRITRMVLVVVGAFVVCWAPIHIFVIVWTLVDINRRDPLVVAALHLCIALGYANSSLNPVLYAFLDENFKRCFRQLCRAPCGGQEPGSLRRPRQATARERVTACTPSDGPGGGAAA
pKi: −log10 of the molar value.
measured_quantity: pKi

>  <molecule>
CCCN1CCC(N(c2ccccc2)c2cccc(C(=O)N(C)c3ccccc3)c2)CC1.O=C(O)/C=C/C(=O)O

>  <value_reported>
7.60

$$$$
